Tested on: Ovsaho
ASSAY_EXPLANATION: drug sensitivity score (DSS) from 5-point dose-response viability curve (DSS (area-under-curve based score)); higher = more sensitive (stronger growth inhibition or killing); extreme values may be limits of the assay
CONDITION_SET: exposure time: 72 h; concentration range: 5 concentrations over 10,000-fold range
RECORDED_METRIC: drug sensitivity score

Examples with answers:
>  <CHEM_SMILES>
Cc1ccc(C(=O)N(CCCN)[C@@H](c2oc3cc(Cl)ccc3c(=O)c2Cc2ccccc2)C(C)C)cc1

>  <RECORDED_METRIC>
drug sensitivity score

>  <VAL>
4.1

$$$$
>  <CHEM_SMILES>
CN1CCN(c2nc(C3=C(c4c[nH]c5ccccc45)C(=O)NC3=O)c3ccccc3n2)CC1

>  <RECORDED_METRIC>
drug sensitivity score

>  <VAL>
0

$$$$
>  <CHEM_SMILES>
CNc1ncc2cc(-c3cc(NC(=O)NCCC(C)(C)C)c(F)cc3C)c(C)nc2n1

>  <RECORDED_METRIC>
drug sensitivity score

>  <VAL>
8.9

$$$$
>  <CHEM_SMILES>
CCC(C)(C)C(=O)O[C@H]1C[C@@H](C)C=C2C=C[C@H](C)[C@H](CC[C@@H]3C[C@@H](O)CC(=O)O3)[C@H]21

>  <RECORDED_METRIC>
drug sensitivity score

>  <VAL>
3.5

$$$$
>  <CHEM_SMILES>
CCc1nc(C(N)=O)c(Nc2ccc(N3CCC(N4CCN(C)CC4)CC3)c(OC)c2)nc1NC1CCOCC1

>  <RECORDED_METRIC>
drug sensitivity score

>  <VAL>
0

$$$$
>  <CHEM_SMILES>
Nc1nc(OCc2cc(Br)cs2)c2[nH]cnc2n1

>  <RECORDED_METRIC>
drug sensitivity score

>  <VAL>
2.5

$$$$
>  <CHEM_SMILES>
O=C(Nc1cc(Oc2cc(F)c(NC(=O)C3(C(=O)Nc4ccc(F)cc4)CC3)cc2F)ccn1)C1CC1

>  <RECORDED_METRIC>
drug sensitivity score

>  <VAL>
3.6

$$$$

We next turn to a different compound, shown below.
// returns reported drug sensitivity score for input "COC(=O)N[C@@H](C)CNc1nccc(-c2cn(C(C)C)nc2-c2cc(Cl)cc(NS(C)(=O)=O)c2F)n1"
0.1

----------
Test system: COV318
ASSAY_EXPLANATION: drug sensitivity score (DSS) from 5-point dose-response viability curve (DSS (area-under-curve based score)); higher = more sensitive (stronger growth inhibition or killing); extreme values may be limits of the assay
CONDITION_SET: exposure time: 72 h; concentration range: 5 concentrations over 10,000-fold range
RECORDED_METRIC: drug sensitivity score
Numbers only.

# count of solved cases: 6
>  <CHEM_SMILES>
Nc1ccccc1NC(=O)c1ccc(CNc2nccc(-c3cccnc3)n2)cc1

>  <TARGET_SYSTEM>
COV318

>  <RECORDED_METRIC>
drug sensitivity score

>  <VAL>
8.1

$$$$
>  <CHEM_SMILES>
CC(C)Nc1cc(-c2c[nH]c(C(=O)N[C@H](CO)c3cccc(Cl)c3)c2)c(Cl)cn1

>  <TARGET_SYSTEM>
COV318

>  <RECORDED_METRIC>
drug sensitivity score

>  <VAL>
0.9

$$$$
>  <CHEM_SMILES>
COc1cccc(OCCCN)c1-c1cc(Nc2cnc(C#N)cn2)n[nH]1

>  <TARGET_SYSTEM>
COV318

>  <RECORDED_METRIC>
drug sensitivity score

>  <VAL>
22.9

$$$$
>  <CHEM_SMILES>
CC(=O)O[C@@]12CO[C@@H]1C[C@H](O)[C@@]1(C)C(=O)[C@H](O)C3=C(C)[C@@H](OC(=O)[C@H](O)[C@@H](NC(=O)OC(C)(C)C)c4ccccc4)C[C@@](O)([C@@H](OC(=O)c4ccccc4)[C@H]21)C3(C)C

>  <TARGET_SYSTEM>
COV318

>  <RECORDED_METRIC>
drug sensitivity score

>  <VAL>
9.5

$$$$
>  <CHEM_SMILES>
O=C(O)C(=O)O.[NH-][C@@H]1CCCC[C@H]1[NH-].[Pt+2]

>  <TARGET_SYSTEM>
COV318

>  <RECORDED_METRIC>
drug sensitivity score

>  <VAL>
5

$$$$
>  <CHEM_SMILES>
CC(C)c1cc(-c2n[nH]c(=O)n2-c2ccc3c(ccn3C)c2)c(O)cc1O

>  <TARGET_SYSTEM>
COV318

>  <RECORDED_METRIC>
drug sensitivity score

>  <VAL>
10.3

$$$$

Requested read-out: drug sensitivity score. Entry: "CC(=O)c1cc2c(o1)C(=O)c1ccccc1C2=O"
16.2

Values were extracted from the supplement of paper PMC11616607.
